# Test system: Hh pathway (Smo) in Shh-Light II cells
# ASSAY REMARKS: Shh-Light II Reporter Assay (firefly/Renilla luciferase)
# Format: cell-based
# APPLIED CONDITIONS: Mus musculus, 3 uM Purmorphamine stimulation, 30 hrs
pIC50: −log10 of the molar value.
RECORDED ENDPOINT: pIC50

- SAMPLE SMILES: "Cn1c(-c2ccccc2C(F)(F)F)nnc1C12CCC(c3noc(C4CC(F)(F)C4)n3)(CC1)CC2"
  pIC50: 5.85

(I) Cn1c(-c2ccccc2C(F)(F)F)nnc1C12CCC(c3nnc(C4CC(F)(F)C4)o3)(CC1)CC2
(II) Cn1c(-c2ccccc2C(F)(F)F)nnc1C12CCC(c3noc(C(C)(C)F)n3)(CC1)CC2
(III) Cn1c(-c2ccccc2C(F)(F)F)nnc1C12CCC(c3nnc(C(C)(F)F)o3)(CC1)CC2
# sort list by recorded pIC50, greatest to least Form entry: ranked labels (order as requested).
I, II, III

This collection of values is drawn from patent US7691887B2.
